- protocolDetails: yeast display, Sf9 membrane polyspecificity reagent, FACS + sequencing; frameworks hold sequencing errors
parameter: polyreactivity (PSR sort gate)

- residueString: "QVQLVESGGGLVQAGGSLRLSCAASGRISHRNAMGWYRQAPGKERELVAAITSGGSTNYADSVKGRFTISRDNAKNTVYLQMNSLKPEDTAVYYCTTTTYHWYYYRWEIFDYWGQGTQVTVSS"
  polyreactivity (PSR sort gate): "low polyreactivity"
- residueString: "QVQLVESGGGLVQAGGSLRLSCAASGITFRYYTMGWYRQAPGKERELVAVISWSGGSTYYADSVKGRFTISRDNGKNTVYLQMNSLKPEDTAVYYCAAVRRISRYDYWGQGTQVTVSS"
  polyreactivity (PSR sort gate): "high polyreactivity"
- residueString: "QVQLQGSGGGLVQAGGSLRLSCAASGYIFQNVPMGWNRQAPGKERELVAGIDNGTSTNYADSVNGRFTISRDNAKKTVYLQMNSLKPEDTAVYYCAAAGQADNTLGYWGQGTQVTVSS"
  polyreactivity (PSR sort gate): "low polyreactivity"
- residueString: "QVQLAESGGGLVQAGGSLRLSCAASGRIFYGYTMGWYRQAPGKERELVAAITWSGGSTYYADSVKGRFTISRDNAKNTVYLQMNSLKPKDTAVYYCAATLGNAADYDYGYWGQGTQVTVSS"
  polyreactivity (PSR sort gate): "high polyreactivity"
- residueString: "QDQLVESGGGLVQAGASLRLSCAASGSIICLYAMGWYRQAPGKERELVARITRSGGRTYYADSVKGRFTISRDNAKNTVYLQTNSLKPEDTAVYYCNAYGPNIYSSRYDYWGQGTQVSVSS"
  polyreactivity (PSR sort gate): "low polyreactivity"
- residueString: "QVQLVESGGGLVQAGGSLRLSCAASGFIFSYYAMGWYRQAPGKERELVAAITSNGGSTYYADSVKGRFTISRDNAKNTVYLQMNSLKPEDTAVYYCNVKYRYWNQGYGSWGQGTQVTVSS"
  polyreactivity (PSR sort gate): "high polyreactivity"

# polyreactivity (PSR sort gate) of QVQVVESGGGLVQAGGSLRLSCAASGSIFAYYAMGWYRQAPGKERELVAVISSDGSTYYADSVKGRFTISRDNAKNTVYLQMNSLKPEDTAVYYCAAYPGKYSRYNYWGQGTQVTVSS = high polyreactivity

Reported polyreactivity (PSR sort gate) of QVQLVESGGGLVKAGGSLRLSCAASGLILYRYVMGWYRQAPGKERELVAAISSSGGRTYYADSVKGRFTISRDIAKNTVYLQMNSMKPEDTAVYYCAKRRSDARRGYDYWGQGTQVTVSS : high polyreactivity

* * *

- protocolDetails: yeast display, Sf9 membrane polyspecificity reagent, FACS + sequencing; frameworks hold sequencing errors

- residueString: "QVQLVESGGGLVQAGGSLRLSCAASGRISQGYAMGWYRQAPGKERELVAGISRSGGSTYYADSVKGRFTISRDNAKNTVYLQMNSLKPEDTAVYYCAARVRGRNASDYDYYYWGQGSQVTVSS"
  polyreactivity (PSR sort gate): "high polyreactivity"
- residueString: "QVQLVESGGCLVQAGGSLRLSSAASGSIFHAYAMGWYRQSPGKESELVAAITIDGSTNYADSVKGRFTISRDNAKNTVYLQMNSLKPEDTAVYYCNKDGAYDAYSYDYWGQGTQVTVSS"
  polyreactivity (PSR sort gate): "low polyreactivity"
- residueString: "QVQLVESGGGLVQAGGSLRLSCAASARNFGYYAMGWYRPAPGKERELVAAISSGGNTYYADSVKGRFTISRDNAKNTVYLQMNSLKPEDTAVYYCNVVYVGWQYGYDYWGQGTQVTVSS"
  polyreactivity (PSR sort gate): "low polyreactivity"
- residueString: "QVQHVESGVGLVQAGGSLRLSCAASGFTFGWYAMGWYRQAPGKERELVASISWSGSTTYYADSVKGRFTISRDIAKNTVYLQMNSLKPEDTAVYYCNARRSYVRNDFDYWGQGTQVTVSS"
  polyreactivity (PSR sort gate): "high polyreactivity"
